Reported pre-steady-state target cleavage rate values are given for each entry in this list.
Tested on: EfPiwi piRISC loaded with L1MC piRNA (26 nt)
assay.method.text: pre-steady-state target cleavage rate (min^-1); auxiliary factor: 500 nM Ephydatia muelleri Gtsf1; guide: L1MC piRNA 5'p-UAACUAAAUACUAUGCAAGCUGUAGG; higher = faster piRNA-guided slicing of the target
# respond with the number and nothing more

UCCUGCUACAGCUUGCGUAGUAUUUAGUUA 0.0375
UCCUGCUACAGCUUGCAUAGUAUUCUAGUUA 0.0043
UCCUGGAUGAGCUUGCAUAUUAUUUAGUUA 0.00658

Field: next sequence
Request: Query for EfPiwi piRISC loaded with L1MC piRNA (26 nt): what pre-steady-state target cleavage rate does the record show for UCCUGGUACAGCUUGCAUAGUAUAUUAGUUA ?
Response: 0.00489

----------
Tested on: EfPiwi piRISC loaded with piRNA #1 (26 nt)
assay.method.text: pre-steady-state target cleavage rate (min^-1); auxiliary factor: 500 nM Ephydatia muelleri Gtsf1; guide: piRNA #1 5'p-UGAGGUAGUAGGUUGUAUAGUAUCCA; higher = faster piRNA-guided slicing of the target
The label depends only on pre-steady-state target cleavage rate: class 1 if it is at least 0.01, class 0 if it is smaller.

GGAGACCUAACUAUACAACCUACUGCCUCA class 1
GGAGAGGAUACUAUACAACCUACUUACCUCA class 0
GGAGACGUUACAAUACAACCUACUACCUCA class 1
GGAGAGCAUACUAUACAACCUAGUACCUCA class 0
GGAGACGAUACUAUACAACCUGCUACCUCA class 1
GGAGAGGAUACUAUACAAUCCUACUACCUCA class 0
GGAGAGGAUACUAAACAACCUACUACCACA class 0
GGAGACCAUACUAUACAACCUAAUACCUCA class 0

Request: Assess whether reported pre-steady-state target cleavage rate for GGAGACGUUACUAUACAACCUACUACCUCA sits at 0.01 or higher.
Response: class 1

Request: API: above_or_equal(metric=pre-steady-state target cleavage rate, cutoff=0.01) for item GGAGAGGAUACUUACAACCUACUACCUCA
Response: class 0

Request: Hi, just wondering whether GGAGACCAUAGUUUACAACCUACUACCUCA shows pre-steady-state target cleavage rate of 0.01 or higher.
Response: class 1

Request: Item GGAGACGAUACUUUACAACCUACUACCUGA with pre-steady-state target cleavage rate of 0.01 or above?
Response: class 0

Request: Determine whether measured pre-steady-state target cleavage rate meets or exceeds 0.01 for GGAGUGGAUACUAUACAACCUUCUACCUCA
Response: class 1

----------
Test system: MILI (PIWIL2) piRISC loaded with L1MC piRNA (26 nt);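 further: 1 nM active piRISC with 0.1 nM target library at 33 °C single turnover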
assay.method.text: pre-steady-state target cleavage rate (min^-1); guide: L1MC piRNA 5'p-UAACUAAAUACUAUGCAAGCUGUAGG; MIWI and MILI are mouse PIWI proteins and EfPiwi is from a freshwater sponge; tags in brackets are library labels; higher = faster piRNA-guided slicing of the target
condition: auxiliary factor: none (no GTSF1)
recorded.endpoint: pre-steady-state target cleavage rate

UCCUGGAUGUCGUUGCAUAGUAUUUAGUCUA 0.00433

Request: Quick one: pre-steady-state target cleavage rate of UCCUCCUACAGCUUGCAUAGUAUCUAGUUA ?
Response: 0.00564

Request: For the sequence UCCUGCUACACCUUGCAUUGUAUUUAGUUA , what pre-steady-state target cleavage rate is on record?
Response: 0.0123

Request: Dear colleague, I am looking for the recorded pre-steady-state target cleavage rate of the following sequence: UCCUGGAUGAGGAUGCAUAGUAUUUAGUUA
Response: 0.00665

Request: I'd like to know its pre-steady-state target cleavage rate. The sequence in question is UCCUGGAUCAGCCUUGCAUAGUAUUUAGUUA
Response: 0.00595

Request: GET /values?readout=pre-steady-state target cleavage rate&item= UCCUCCUUCAGCUUGCAAAGUAUUUAGUUA
Response: 0.00632

Request: Requested field: pre-steady-state target cleavage rate. Item: UCCUGCCUACAGCUUGCAUAGUAUUUAGUUA
Response: 0.0113
